# experimental_target: T1, recombinant human activated Factor VII (FVIIa) (human, UniProt P08709 61-212; P08709 213-466, ten glutamate residues of the Gla domain may be gamma-carboxylated)
# T1 construct: chains tethered by a disulfide bond; also called Factor VIIa; rFVIIa
# T1 sequence 1: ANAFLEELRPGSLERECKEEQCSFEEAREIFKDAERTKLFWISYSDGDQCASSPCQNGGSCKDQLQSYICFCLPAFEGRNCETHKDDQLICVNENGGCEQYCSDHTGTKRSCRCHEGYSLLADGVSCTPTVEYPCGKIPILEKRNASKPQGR
# T1 sequence 2: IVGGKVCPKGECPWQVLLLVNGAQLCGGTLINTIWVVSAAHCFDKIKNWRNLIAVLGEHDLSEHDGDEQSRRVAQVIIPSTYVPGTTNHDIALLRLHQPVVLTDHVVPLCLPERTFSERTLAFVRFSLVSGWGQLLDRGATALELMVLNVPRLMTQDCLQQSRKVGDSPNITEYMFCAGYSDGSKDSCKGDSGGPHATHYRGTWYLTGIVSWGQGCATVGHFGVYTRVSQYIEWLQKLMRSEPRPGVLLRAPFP
# protocol_text: BLI (Fortebio)
Below, each entry is listed alongside its reported Kd.
Just the number please, in nM, no unit attached.

- VH SEQ ID NO 562 / VL SEQ ID NO 310 (antibody, IgG4, V domains shown, humanized 11F2; IgG4 S228P/kappa) VH: QVQLQESGPGLVKPSDTLSLTCAVSGYSISSDSAWSWIRQPPGKGLEWIGYIQYSGSTNYNPSLKSRVTMSRDTSKNQFSLKLSSVTALDTAVYYCARSVNYYGNSFAVGPWGQGTLVTVSS VL: EIVLTQSPATLSLSPGERATLSCRASQGISDYLAWYQQKPGQAPRLLIKYASQPATGIPARFSGSGSGTDFTLTISSLEPEDFAVYYCQNGHSFPLTFGQGTKLEIK: 6.4

Consider the record given below.
So, VH SEQ ID NO 562 / VL SEQ ID NO 414 (antibody, IgG4, V domains shown, humanized 11F2; IgG4 S228P/kappa) VH: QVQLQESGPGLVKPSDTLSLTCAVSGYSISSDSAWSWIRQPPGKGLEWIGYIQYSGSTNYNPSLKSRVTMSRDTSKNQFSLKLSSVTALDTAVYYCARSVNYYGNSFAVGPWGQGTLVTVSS VL: EIVLTQSPATLSLSPGERATLSCRASQGVSDYLAWYQQKPGQAPRLLIKYASQPATGIPARFSGSGSGTDFTLTISSLEPEDFAVYYCQNGHSFPLTFGQGTKLEIK ? Its Kd was 8.8
